The origin of these recorded values is ChEMBL document CHEMBL3885881.

Parameter ALBUMIN: see the listing below.
# Organism: Rattus norvegicus
# experiment_summary: DrugMatrix - Regimen: Daily Repeat
# Format: toxicity, organism-based, Sprague-Dawley
# Set-up: regimen Daily Repeat, gender Male, age 6-8 weeks
# reported_conditions: in vivo, po, 0 mg/kg, 72 h, tissue Plasma, route oral GAVAGE, dose level Control, time 3 day, vehicle 100 % SALINE
// units = G/DL; emit number, no label

molecule | ALBUMIN / G/DL
CCCc1nn(C)c2c(=O)[nH]c(-c3cc(S(=O)(=O)N4CCN(C)CC4)ccc3OCC)nc12 | 4.13

Request: # lookup: ALBUMIN of CC(=O)OCC(CCn1cnc2cnc(N)nc21)COC(C)=O
Result: 4.13

Request: // same read-out, input: Cc1cc(CC(=O)O)n(C)c1C(=O)c1ccc(Cl)cc1 [ZOMEPIRAC]
Result: 4

Request: // same read-out, input: Oc1ccccc1O
Result: 4

====

# Species on record: Rattus norvegicus
# experiment_summary: DrugMatrix - Regimen: Daily Repeat
# Type: toxicity, organism-based, Sprague-Dawley
# Set-up: regimen Daily Repeat, gender Male, age 6-8 weeks
# reported_conditions: in vivo, po, 0 mg/kg, 72 h, tissue Plasma, route oral GAVAGE, dose level Control, time 3 day, […]
Could you mark each record true (1) if its CHOLESTEROL falls strictly under 70 mg/dL, and false (0) if it equals or exceeds it?

compound | assigned_class
NC[C@@H]1O[C@H](O[C@H]2[C@@H](O)[C@H](O[C@@H]3[C@@H](O)[C@H](N)C[C@H](N)[C@H]3O[C@H]3O[C@H](CN)[C@@H](O)[C@H](O)[C@H]3N)O[C@@H]2CO)[C@H](N)[C@@H](O)[C@@H]1O [FRAMYCETIN] | true (1)

Request: Please determine if COc1ncnc(NS(=O)(=O)c2ccc(N)cc2)c1OC [SULFADOXINE] is below 70 mg/dL in terms of CHOLESTEROL.
Result: false (0)

Request: // same read-out, input: CC(C)Cc1ccc(CC(=O)O)cc1 [IBUFENAC]
Result: false (0)

====

Parameter SODIUM: see the listing below.
# Species: Rattus norvegicus
# experiment_summary: DrugMatrix - Regimen: Daily Repeat
# Type: toxicity, organism-based, Sprague-Dawley
# Parameters: regimen Daily Repeat, gender Male, age 6-8 weeks
# reported_conditions: in vivo, po, 0 mg/kg, 120 h, tissue Plasma, route oral GAVAGE, dose level Control, time 5 day, vehicle 100 % WATER
// units = MEQ/L; emit number, no label

compound | quantity_unit | SODIUM
CCN[C@@H](C)Cc1cccc(C(F)(F)F)c1 [DEXFENFLURAMINE] | MEQ/L | 148.17
Nc1ccc(S(=O)(=O)Nc2nccs2)cc1 [SULFATHIAZOLE] | MEQ/L | 145.35

Request: # lookup: SODIUM of O=P1(N(CCCl)CCCl)NCCCO1 (stereo not given) [CYCLOPHOSPHAMIDE ANHYDROUS]
Result: 145

Request: // same read-out, input: CCCc1nn(C)c2c(=O)[nH]c(-c3cc(S(=O)(=O)N4CCN(C)CC4)ccc3OCC)nc12
Result: 144.57

Request: // same read-out, input: O=C(O)c1cccnc1 [NIACIN]
Result: 144.13

Request: // same read-out, input: CCOC(N)=O
Result: 142.77

Request: // same read-out, input: O=C(O)c1cc(=O)c2c(OCC(O)COc3cccc4oc(C(=O)O)cc(=O)c34)cccc2o1 [CROMOLYN]
Result: 148.17

Request: // same read-out, input: CNS(=O)(=O)Cc1ccc2[nH]cc(CCN(C)C)c2c1
Result: 145.55

Request: // same read-out, input: CCCCCCCCCCCCCCCC[n+]1ccccc1.[Br-]
Result: 142.43

Request: // same read-out, input: CN1C2CCCC1CC(NC(=O)c1nn(C)c3ccccc13)C2 (stereo not given) [GRANISETRON]
Result: 145.35

====

# Species: Rattus norvegicus
# experiment_summary: DrugMatrix - Regimen: Daily Repeat
# Format: toxicity, organism-based, Sprague-Dawley
# Parameters: regimen Daily Repeat, gender Male, age 6-8 weeks
# reported_conditions: in vivo, po, 1500 mg/kg, 72 h, tissue Blood, route oral GAVAGE, dose level High, time 3 day, vehicle .5 % CMC
endpoint_label: HEMATOCRIT (%)
// units = %; emit number, no label

Solved entries (count: 4):
compound | endpoint_label | quantitative_result
CC(C)(Sc1cc(C(C)(C)C)c(O)c(C(C)(C)C)c1)Sc1cc(C(C)(C)C)c(O)c(C(C)(C)C)c1 [PROBUCOL] | HEMATOCRIT | 34.77
CCOC(=O)[C@H](CCc1ccccc1)N[C@@H](C)C(=O)N1CCC[C@H]1C(=O)O | HEMATOCRIT | 34.33
O=c1cc(-c2ccccc2)oc2ccc3ccccc3c12 [BETA-NAPHTHOFLAVONE] | HEMATOCRIT | 44.17
Nc1nc2c(c(=O)[nH]1)N(C=O)C(CNc1ccc(C(=O)N[C@@H](CCC(=O)O)C(=O)O)cc1)CN2 (stereo not given in full) [LEUCOVORIN] | HEMATOCRIT | 35.03

Next, consider the following compound.
Request: # lookup: HEMATOCRIT of C[C@@H](O)[C@H]1C(=O)N2C(C(=O)O)=C(S[C@@H]3CN[C@H](C(=O)N(C)C)C3)[C@H](C)[C@H]12 [MEROPENEM]
Result: 35.5

====

# Organism: Rattus norvegicus
# experiment_summary: DrugMatrix - Regimen: Daily Repeat
# Format: toxicity, organism-based, Sprague-Dawley
# Set-up: regimen Daily Repeat, gender Male, age 6-8 weeks
# reported_conditions: in vivo, po, 1500 mg/kg, 72 h, tissue Plasma, route oral GAVAGE, dose level High, time 3 day, vehicle .5 % CMC
endpoint_label: CREATINE PHOSPHOKINASE (u/L)
// units = u/L; emit number, no label

Solved entries (count: 4):
compound | endpoint_label | quantitative_result
O=c1cc(-c2ccccc2)oc2ccc3ccccc3c12 | CREATINE PHOSPHOKINASE | 219.67
CCOC(=O)[C@H](CCc1ccccc1)N[C@@H](C)C(=O)N1CCC[C@H]1C(=O)O | CREATINE PHOSPHOKINASE | 191.33
Nc1nc2c(c(=O)[nH]1)N(C=O)C(CNc1ccc(C(=O)N[C@@H](CCC(=O)O)C(=O)O)cc1)CN2 (stereo not given in full) | CREATINE PHOSPHOKINASE | 183.67
C[C@@H](O)[C@H]1C(=O)N2C(C(=O)O)=C(S[C@@H]3CN[C@H](C(=O)N(C)C)C3)[C@H](C)[C@H]12 | CREATINE PHOSPHOKINASE | 176.67

Request: # lookup: CREATINE PHOSPHOKINASE of CC(C)(Sc1cc(C(C)(C)C)c(O)c(C(C)(C)C)c1)Sc1cc(C(C)(C)C)c(O)c(C(C)(C)C)c1
Result: 249.33

====

# Species: Rattus norvegicus
# experiment_summary: DrugMatrix - Regimen: Daily Repeat
# Format: toxicity, organism-based, Sprague-Dawley
# Parameters: regimen Daily Repeat, gender Male, age 6-8 weeks
# reported_conditions: in vivo, po, 0 mg/kg, 72 h, tissue Plasma, route oral GAVAGE, dose level Control, time 3 day, vehicle .5 % CMC
Parameter PHOSPHORUS: see the listing below.
// units = mg/dL; emit number, no label

Solved entries (count: 2):
compound | PHOSPHORUS [mg/dL]
CO[C@H]1C[C@@H]2CC[C@@H](C)[C@@](O)(O2)C(=O)C(=O)N2CCCC[C@H]2C(=O)O[C@H]([C@H](C)C[C@@H]2CC[C@@H](O)[C@H](OC)C2)CC(=O)[C@H](C)/C=C(\C)[C@@H](O)[C@@H](OC)C(=O)[C@H](C)C[C@H](C)/C=C/C=C/C=C/1C | 11.97
Cc1cnc(C(=O)NCCc2ccc(S(=O)(=O)NC(=O)NC3CCCCC3)cc2)cn1 [GLIPIZIDE] | 11.57

Next, consider the following compound.
Request: # lookup: PHOSPHORUS of C[C@]12C/C(=C/O)C(=O)C[C@@H]1CC[C@@H]1[C@@H]2CC[C@@]2(C)[C@H]1CC[C@]2(C)O
Result: 11.43

====

Parameter SODIUM: see the listing below.
# Species: Rattus norvegicus
# experiment_summary: DrugMatrix - Regimen: Daily Repeat
# Format: toxicity, organism-based, Sprague-Dawley
# Parameters: regimen Daily Repeat, gender Male, age 6-8 weeks
# reported_conditions: in vivo, po, 1500 mg/kg, 120 h, tissue Plasma, route oral GAVAGE, dose level High, time 5 day, vehicle .5 % CMC
// units = MEQ/L; emit number, no label

Solved entries (count: 4):
compound | quantitative_result
Nc1nc2c(c(=O)[nH]1)N(C=O)C(CNc1ccc(C(=O)N[C@@H](CCC(=O)O)C(=O)O)cc1)CN2 (stereo not given in full) | 145.83
C[C@@H](O)[C@H]1C(=O)N2C(C(=O)O)=C(S[C@@H]3CN[C@H](C(=O)N(C)C)C3)[C@H](C)[C@H]12 | 147.07
CCOC(=O)[C@H](CCc1ccccc1)N[C@@H](C)C(=O)N1CCC[C@H]1C(=O)O | 140.13
CC(C)(Sc1cc(C(C)(C)C)c(O)c(C(C)(C)C)c1)Sc1cc(C(C)(C)C)c(O)c(C(C)(C)C)c1 | 145.27

Request: # lookup: SODIUM of O=c1cc(-c2ccccc2)oc2ccc3ccccc3c12
Result: 147.67
